Sourced from paper PMC10384982

System name: butyrylcholinesterase (BuChE) (Equus caballus)
Construct: butyrylcholinesterase (E.C. 3.1.1.8) from equine serum; purchased Sigma–Aldrich (Steinheim, Germany); host or cells: equine serum
Sequence (P81908 whole entry): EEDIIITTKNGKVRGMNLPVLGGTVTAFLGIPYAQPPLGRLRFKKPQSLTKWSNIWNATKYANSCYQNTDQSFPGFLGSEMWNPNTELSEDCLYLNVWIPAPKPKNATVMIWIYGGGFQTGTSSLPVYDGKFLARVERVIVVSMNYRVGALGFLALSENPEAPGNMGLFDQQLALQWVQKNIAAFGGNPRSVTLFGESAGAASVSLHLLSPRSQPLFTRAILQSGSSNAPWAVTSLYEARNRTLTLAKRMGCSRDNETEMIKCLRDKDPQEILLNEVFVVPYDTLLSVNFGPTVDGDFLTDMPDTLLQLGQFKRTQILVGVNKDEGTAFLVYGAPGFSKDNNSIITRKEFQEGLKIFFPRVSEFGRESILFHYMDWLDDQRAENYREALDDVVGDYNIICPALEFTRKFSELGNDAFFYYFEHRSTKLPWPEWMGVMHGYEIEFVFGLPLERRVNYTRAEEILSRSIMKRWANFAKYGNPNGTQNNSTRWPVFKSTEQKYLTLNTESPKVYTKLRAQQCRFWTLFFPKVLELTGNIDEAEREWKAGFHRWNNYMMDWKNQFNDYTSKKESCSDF
Assay summary: biochemical
Measured attribute: pIC50
As a rule, pIC50 stands for the negative log10 of the concentration, concentration in M.

-- ask Can you look up the measured pIC50 of O=[N+]([O-])c1cccc(/C(CSc2nc3ccccc3o2)=N\c2nnc(-c3cccc([N+](=O)[O-])c3)o2)c1 for me?
-- reply 5.12

-- ask Can you look up the measured pIC50 of O=[N+]([O-])c1ccc(-c2nnc(/N=C(/CSc3nc4ccccc4o3)c3cccc([N+](=O)[O-])c3)o2)cc1 for me?
-- reply 5.05

---

System name: butyrylcholinesterase (BuChE) (Equus caballus)
Construct: butyrylcholinesterase (E.C. 3.1.1.8) from equine serum; purchased Sigma–Aldrich (Steinheim, Germany); host or cells: equine serum
Assay summary: biochemical
Experimental context: read-out: BuChE Inhibition IC50 ± SEM
Measured attribute: IC50 (µM)
Quick reminder: number only, in µM, skip the unit.

-- ask Can you look up the measured IC50 of CN(C)c1ccc(-c2nnc(/N=C(/CSc3nc4ccccc4o3)c3cccc([N+](=O)[O-])c3)o2)cc1 for me?
-- reply 16.6

-- ask Can you look up the measured IC50 of Cc1ccc(/C(CSc2nc3ccccc3o2)=N\c2nnc(-c3ccc(OCc4ccccc4)cc3)o2)cc1 for me?
-- reply 28.6

-- ask Can you look up the measured IC50 of Cc1ccc(/C(CSc2nc3ccccc3o2)=N\c2nnc(-c3ccc([N+](=O)[O-])cc3)o2)cc1 for me?
-- reply 18.5

-- ask Can you look up the measured IC50 of Cc1ccc(/C(CSc2nc3ccccc3o2)=N\c2nnc(-c3ccc4ccccc4c3)o2)cc1 for me?
-- reply 42.6

-- ask Can you look up the measured IC50 of CN(C)c1ccc(-c2nnc(/N=C(/CSc3nc4ccccc4o3)c3ccc(Cl)c(Cl)c3)o2)cc1 for me?
-- reply 18.3

-- ask Can you look up the measured IC50 of O=[N+]([O-])c1cccc(/C(CSc2nc3ccccc3o2)=N\c2nnc(-c3ccc(Cl)cc3Cl)o2)c1 for me?
-- reply 9.2

-- ask Can you look up the measured IC50 of O=[N+]([O-])c1cccc(-c2nnc(/N=C(/CSc3nc4ccccc4o3)c3ccc(Cl)c(Cl)c3)o2)c1 for me?
-- reply 7.6

-- ask Can you look up the measured IC50 of Cc1cccc(/C(CSc2nc3ccccc3o2)=N\c2nnc(-c3ccc(OCc4ccccc4)cc3)o2)c1 for me?
-- reply 31.5

-- ask Can you look up the measured IC50 of Clc1ccc(/C(CSc2nc3ccccc3o2)=N\c2nnc(-c3ccc(Cl)c(Cl)c3)o2)cc1Cl for me?
-- reply 7.2

-- ask Can you look up the measured IC50 of O=[N+]([O-])c1cccc(/C(CSc2nc3ccccc3o2)=N\c2nnc(-c3ccc(Cl)cc3)o2)c1 for me?
-- reply 11.9

-- ask Can you look up the measured IC50 of Cc1ccc(/C(CSc2nc3ccccc3o2)=N\c2nnc(-c3ccc(Cl)cc3Cl)o2)cc1 for me?
-- reply 14.8

-- ask Can you look up the measured IC50 of O=[N+]([O-])c1ccc(-c2nnc(/N=C(/CSc3nc4ccccc4o3)c3ccc(Cl)c(Cl)c3)o2)cc1 for me?
-- reply 9.8

-- ask Can you look up the measured IC50 of Cc1ccc(/C(CSc2nc3ccccc3o2)=N\c2nnc(-c3ccc(Cl)cc3)o2)cc1 for me?
-- reply 12.3

-- ask Can you look up the measured IC50 of Cc1ccc(/C(CSc2nc3ccccc3o2)=N\c2nnc(-c3cccc([N+](=O)[O-])c3)o2)cc1 for me?
-- reply 15.8

-- ask Can you look up the measured IC50 of Cc1ccc(/C(CSc2nc3ccccc3o2)=N\c2nnc(-c3ccc(N(C)C)cc3)o2)cc1 for me?
-- reply 24.6

-- ask Can you look up the measured IC50 of Clc1ccc(-c2nnc(/N=C(/CSc3nc4ccccc4o3)c3ccc(Cl)c(Cl)c3)o2)cc1 for me?
-- reply 13.3

-- ask Can you look up the measured IC50 of Cc1ccc(/C(CSc2nc3ccccc3o2)=N\c2nnc(-c3ccc(C=O)cc3)o2)cc1 for me?
-- reply 28.7
